- system-name: Gal(b1-3)GalNAc
- assay-info: glycan array binding signal (z-score within array); higher = stronger binding
- run-parameters: glycan notation: IUPAC condensed, linker removed
About 410 targets per protein were measured; listed, in parts, are those with the strongest signals and a random draw of the rest.
quantity-name: glycan array binding signal (z-score)

>  <binder>
Agalectin (Anopheles gambiae) (protein) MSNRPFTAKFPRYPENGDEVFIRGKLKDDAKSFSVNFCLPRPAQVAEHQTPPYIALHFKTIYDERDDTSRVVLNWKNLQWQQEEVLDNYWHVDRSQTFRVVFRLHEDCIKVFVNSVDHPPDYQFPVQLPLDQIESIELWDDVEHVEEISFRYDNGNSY

>  <obs-value>
-0.47

$$$$
>  <binder>
Tap1 (Sordaria macrospora), Q50IV4 (protein) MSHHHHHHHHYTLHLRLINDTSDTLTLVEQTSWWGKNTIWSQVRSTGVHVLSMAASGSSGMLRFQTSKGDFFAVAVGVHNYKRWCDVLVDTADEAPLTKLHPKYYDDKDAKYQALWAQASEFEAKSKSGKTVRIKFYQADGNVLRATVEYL

>  <obs-value>
3.97

$$$$
>  <binder>
TbCVNHOb (Tuber borchii) (protein) MSFYASSEDVRTIEEGGRTWLVGRARRADGSWQDIKLDLDNIIGNRDGHLTWGEQNFTQSASDIRFNFEGGSNVPVLRAKLRNAAGGEQESDLNLGERLTNNNGDLVFN

>  <obs-value>
-0.117

$$$$
>  <binder>
Gal 10 (Homo sapiens), Q05315 (protein) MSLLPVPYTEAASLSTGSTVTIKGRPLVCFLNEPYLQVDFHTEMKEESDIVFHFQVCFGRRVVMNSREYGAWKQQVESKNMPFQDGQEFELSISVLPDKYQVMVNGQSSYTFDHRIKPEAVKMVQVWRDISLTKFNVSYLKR

>  <obs-value>
0.117

$$$$
>  <binder>
DCAL1 (Homo sapiens), Q8IZS7 (protein) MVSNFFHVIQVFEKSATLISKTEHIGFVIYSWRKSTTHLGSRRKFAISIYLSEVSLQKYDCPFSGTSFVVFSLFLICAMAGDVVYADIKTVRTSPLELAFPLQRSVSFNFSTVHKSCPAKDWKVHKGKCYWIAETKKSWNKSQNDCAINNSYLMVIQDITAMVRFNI

>  <obs-value>
-0.214

$$$$
>  <binder>
MGL1 (Mus musculus), P49300 (protein) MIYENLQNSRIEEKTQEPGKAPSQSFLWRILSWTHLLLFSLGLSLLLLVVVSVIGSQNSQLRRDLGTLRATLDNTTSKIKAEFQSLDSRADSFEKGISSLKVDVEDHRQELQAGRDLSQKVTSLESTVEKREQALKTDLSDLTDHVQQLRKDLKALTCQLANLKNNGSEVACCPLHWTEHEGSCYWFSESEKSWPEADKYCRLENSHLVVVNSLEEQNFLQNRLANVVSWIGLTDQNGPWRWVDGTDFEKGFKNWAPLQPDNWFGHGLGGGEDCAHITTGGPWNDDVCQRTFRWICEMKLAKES

>  <obs-value>
-0.112

$$$$
>  <binder>
AT5G24760(45) (Arabidopsis thaliana), Q8LEB2 (protein) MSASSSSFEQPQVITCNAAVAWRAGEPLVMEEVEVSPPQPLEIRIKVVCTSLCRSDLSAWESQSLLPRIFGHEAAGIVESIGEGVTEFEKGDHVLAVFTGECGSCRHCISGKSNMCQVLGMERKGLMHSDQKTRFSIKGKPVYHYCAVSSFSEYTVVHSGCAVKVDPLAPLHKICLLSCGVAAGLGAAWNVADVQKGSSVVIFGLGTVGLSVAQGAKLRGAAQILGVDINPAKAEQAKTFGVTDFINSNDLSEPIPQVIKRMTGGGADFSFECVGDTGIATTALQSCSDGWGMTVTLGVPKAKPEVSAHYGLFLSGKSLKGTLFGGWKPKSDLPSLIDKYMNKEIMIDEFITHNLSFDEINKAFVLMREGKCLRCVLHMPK

>  <obs-value>
0.106

$$$$
>  <binder>
DrGal9 (Danio rerio) (protein) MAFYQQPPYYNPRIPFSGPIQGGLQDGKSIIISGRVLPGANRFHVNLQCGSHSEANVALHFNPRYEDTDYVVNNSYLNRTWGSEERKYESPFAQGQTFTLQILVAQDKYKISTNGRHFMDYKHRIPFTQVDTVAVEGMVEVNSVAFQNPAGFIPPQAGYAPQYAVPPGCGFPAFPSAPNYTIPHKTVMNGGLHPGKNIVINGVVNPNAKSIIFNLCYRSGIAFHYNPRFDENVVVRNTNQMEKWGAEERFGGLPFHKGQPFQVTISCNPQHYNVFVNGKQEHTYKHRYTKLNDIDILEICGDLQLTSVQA

>  <obs-value>
-0.351

$$$$
>  <binder>
CFEM-SCL (Saccharomyces cerevisiae), O13547 (protein) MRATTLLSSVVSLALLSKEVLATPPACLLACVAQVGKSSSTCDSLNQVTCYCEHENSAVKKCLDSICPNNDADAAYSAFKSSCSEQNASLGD

>  <obs-value>
3.86

$$$$
>  <binder>
CFEM-PPl (Pichia pastoris), F2QPV1 (protein) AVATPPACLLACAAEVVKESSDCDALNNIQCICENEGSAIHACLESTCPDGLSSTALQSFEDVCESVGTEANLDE

>  <obs-value>
4.58

$$$$
>  <binder>
CFEM-PPm (Pichia pastoris), F2QPV1 (protein) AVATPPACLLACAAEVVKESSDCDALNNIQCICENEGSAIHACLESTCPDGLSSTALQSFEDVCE

>  <obs-value>
3.57

$$$$
>  <binder>
HPAIIITrx (Helix pomatia), Q1KM18 (protein) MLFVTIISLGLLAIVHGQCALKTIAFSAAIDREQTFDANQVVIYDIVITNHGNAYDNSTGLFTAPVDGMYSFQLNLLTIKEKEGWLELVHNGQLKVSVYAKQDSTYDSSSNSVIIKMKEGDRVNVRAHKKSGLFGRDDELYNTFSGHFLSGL

>  <obs-value>
-0.149

$$$$
